Would you kindly list protein stability index for each of these variants?
B1: MAGEA6 (parent)
chain: KISGGPRISYPLLHEWALREGEE

# Variants of: B1
# experiment: protein stability index of a GFP-peptide fusion (GPS, HEK-293T) (PSI 1-6); higher = more stable;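 note: lentivirally expressed fusions sorted by FACS into six bins by GFP to DsRed ratio, PSI derived from sequencing read proportions per bin multiplied by bin number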
# conditions: c terminus: native
Numbers only.

Would you please look over these solved cases?
{"columns": ["sequenceCode", "protein stability index"],
 "data": [
  ["KISGGPRISYPLLHEWALRLGEE [E20L]", 3.74],
  ["KISGGPRISYPLLHEWALDEGEE [R19D]", 2.96],
  ["KISGGPRISYPLLHEWAWREGEE [L18W]", 2.78],
  ["KISGGPRISYPLWHEWALREGEE [L13W]", 3.38],
  ["KISGGPRISYPLLHEWALGEGEE [R19G]", 2.67]
]}

Look at each variant and report its protein stability index.
1. KISGGPRISYPLLHEWALREGDE [E22D]
2. KISGGPRISYPLLHEWALREGEW [E23W]
3. KISGGTRISYPLLHEWALREGEE [P6T]
4. KISGGARISYPLLHEWALREGEE [P6A]
5. KISGGPRISYPTLHEWALREGEE [L12T]
6. KISGGPRIFYPLLHEWALREGEE [S9F]
7. KISGDPRISYPLLHEWALREGEE [G5D]

Key:
1: 3.35; 2: 1.94; 3: 2.8; 4: 2.25; 5: 2.23; 6: 1.61; 7: 2.6

The origin of these recorded values is the supplement of paper PMC10567573.
